Reference source for all entries: patent EP4491625A1

Examples of molecules with documented AUC(0-t) follow.
test: Pharmacokinetic study in rats (intravenous or gavage, plasma LC-MS/MS); type: in vivo; conditions: male, rat, plasma; SD rats, po, 5 mg/kg
Give a bare numeral; the unit ng·h/mL is implied.

For the molecule O=C(O)c1ccc2nc(CC3CC=C(c4cccc(OCc5ccc(Cl)c6cc(F)oc56)n4)CC3)n(C[C@@H]3CCO3)c2c1 (some centres unmarked) , what AUC(0-t) is on record?
1960

For the molecule O=C(O)c1ccc2nc(CC3CC=C(c4cccc(OCc5ccc(Cl)c6cc(Cl)oc56)n4)CC3)n(C[C@@H]3CCO3)c2c1 (some centres unmarked) , what AUC(0-t) is on record?
2440

* * *

Target: GLP-1 receptor (Homo sapiens)
Construct: host or cells: HEK293
Sequence (P43220 24-463): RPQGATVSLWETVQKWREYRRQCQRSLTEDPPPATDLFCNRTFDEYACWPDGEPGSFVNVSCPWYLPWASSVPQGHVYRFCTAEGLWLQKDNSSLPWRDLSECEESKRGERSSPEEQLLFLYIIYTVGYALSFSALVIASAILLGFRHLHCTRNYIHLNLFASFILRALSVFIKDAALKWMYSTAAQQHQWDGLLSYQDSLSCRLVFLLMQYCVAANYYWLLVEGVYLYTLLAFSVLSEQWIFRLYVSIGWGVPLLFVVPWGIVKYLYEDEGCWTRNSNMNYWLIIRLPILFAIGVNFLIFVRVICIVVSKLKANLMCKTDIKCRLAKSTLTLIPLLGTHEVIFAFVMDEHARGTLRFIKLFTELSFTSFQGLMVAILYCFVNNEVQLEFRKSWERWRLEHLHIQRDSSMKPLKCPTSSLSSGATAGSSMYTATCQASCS
Assay: cAMP detection assay of agonistic effect in HEK293 cells with high expression of hGLP-1R
Type: cell-based
Protocol: The cells were constructed by Wuxi New Drug Development Co., Ltd. Shanghai. The compound was prepared with DMSO to a working concentration of 100µM or 10µM. 10 points of 4-fold dilution (maximum concentration of 1000nM or 100nM after dilution) was done with Bravo V11. The compound to be tested was diluted 4 times with Bravo to obtain 10 concentrations and the initial concentration was 100µM by Bravo V11. The initial concentration was 100µM.
Attribute Measured: EC50 (pM)
Give a bare numeral; the unit pM is implied.

For the compound O=C(O)c1ccc2nc(C[C@H]3CC[C@H](c4cccc(OCc5ccc(Cl)c6cc(F)oc56)n4)CC3)n(C[C@@H]3CCO3)c2c1 [Compound 27B] , what EC50 is on record?
170

* * *

Examples of compounds with documented Cmax follow.
assay: Pharmacokinetic study in rats (intravenous or gavage, plasma LC-MS/MS); assay type: in vivo; details: male, rat, plasma; SD rats, iv, 1 mg/kg
Give a bare numeral; the unit ng/mL is implied.

>  <Compound>
O=C(O)c1ccc2nc(CC3CC=C(c4cccc(OCc5ccc(Cl)c6cc(Cl)oc56)n4)CC3)n(C[C@@H]3CCO3)c2c1 (some centres unmarked)

>  <Cmax (ng/mL)>
1080

$$$$

For the next question, use this compound.
For the compound O=C(O)c1ccc2nc(CC3CC=C(c4cccc(OCc5ccc(Cl)c6cc(F)oc56)n4)CC3)n(C[C@@H]3CCO3)c2c1 (some centres unmarked) , what Cmax is on record?
2300

* * *

Examples of molecules with documented half-life follow.
experiment: Pharmacokinetic study in rats (intravenous or gavage, plasma LC-MS/MS); type: in vivo; conditions: rat, plasma; SD rats, po, 5 mg/kg
Give a bare numeral; the unit min is implied.

>  <Molecule>
O=C(O)c1ccc2nc(C[C@H]3CC[C@H](c4cccc(OCc5ccc(Cl)c6cc(Cl)oc56)n4)CC3)n(C[C@@H]3CCO3)c2c1 [Compound 38B]

>  <Result Unit>
min

>  <Reported Result>
157

$$$$

For the next question, use this molecule.
For the molecule O=C(O)c1ccc2nc(C[C@H]3CC[C@H](c4cccc(OCc5ccc(Cl)c6cc(F)oc56)n4)CC3)n(C[C@@H]3CCO3)c2c1 [Compound 27B] , what half-life is on record?
251

* * *

assay: Pharmacokinetic study in rats (intravenous or gavage, plasma LC-MS/MS); assay type: in vivo; conditions: rat, plasma; SD rats, iv, 1 mg/kg
Attribute Measured: Tmax
I'd appreciate it if you wrote the number followed by its unit.

>  <Molecule>
O=C(O)c1ccc2nc(C[C@H]3CC[C@H](c4cccc(OCc5ccc(Cl)c6cc(F)oc56)n4)CC3)n(C[C@@H]3CCO3)c2c1 [Compound 27B]

>  <Tmax>
4.98 min

$$$$

For the molecule O=C(O)c1ccc2nc(C[C@H]3CC[C@H](c4cccc(OCc5ccc(Cl)c6cc(Cl)oc56)n4)CC3)n(C[C@@H]3CCO3)c2c1 [Compound 38B] , what Tmax is on record?
4.98 min

* * *

Assay: Pharmacokinetic study in rats (intravenous or gavage, plasma LC-MS/MS)
Assay type: in vivo
Conditions: male, rat, plasma; SD rats, po, 5 mg/kg
Protocol: SD rats: male, 6-8 weeks old, weighing 200-300 g, purchased from SPF ( Beijing ) Biotechnology Co.,Ltd.. At each PK sampling point, 200 µL of whole blood was collected into EDTA-K2 anticoagulant blood tubes and centrifuged at 4°C for 30 min to obtain plasma. […] All collected plasma samples were stored on dry ice or frozen until analyzed. […] Pharmacokinetic parameters were calculated by the […] of Phoenix TM Winnonlin® 8.3 software.
Attribute Measured: Tmax (h)
Give a bare numeral; the unit h is implied.

>  <Compound>
O=C(O)c1ccc2nc(CC3CC=C(c4cccc(OCc5ccc(Cl)c6cc(F)oc56)n4)CC3)n(C[C@@H]3CCO3)c2c1 (some centres unmarked) [Compound 2]

>  <Result Unit>
h

>  <Tmax>
1

$$$$

For the compound O=C(O)c1ccc2nc(CC3CC=C(c4cccc(OCc5ccc(Cl)c6cc(Cl)oc56)n4)CC3)n(C[C@@H]3CCO3)c2c1 (some centres unmarked) [Compound 25] , what Tmax is on record?
4

* * *

Examples of compounds with documented half-life follow.
test: Pharmacokinetic study in rats (intravenous or gavage, plasma LC-MS/MS); type: in vivo; details: male, rat, plasma; SD rats, po, 5 mg/kg
Give a bare numeral; the unit h is implied.

>  <Compound>
O=C(O)c1ccc2nc(CC3CC=C(c4cccc(OCc5ccc(Cl)c6cc(F)oc56)n4)CC3)n(C[C@@H]3CCO3)c2c1 (some centres unmarked)

>  <half-life / h>
2.56

$$$$

For the compound O=C(O)c1ccc2nc(CC3CC=C(c4cccc(OCc5ccc(Cl)c6cc(Cl)oc56)n4)CC3)n(C[C@@H]3CCO3)c2c1 (some centres unmarked) , what half-life is on record?
5.29

* * *

assay: Pharmacokinetic study in rats (intravenous or gavage, plasma LC-MS/MS); type: in vivo; details: rat, plasma; SD rats, po, 5 mg/kg
Examples of compounds with documented Tmax follow.
Give a bare numeral; the unit h is implied.

>  <Compound>
O=C(O)c1ccc2nc(C[C@H]3CC[C@H](c4cccc(OCc5ccc(Cl)c6cc(Cl)oc56)n4)CC3)n(C[C@@H]3CCO3)c2c1 [Compound 38B]

>  <Result Unit>
h

>  <Tmax>
1.17

$$$$

For the next question, use this compound.
For the compound O=C(O)c1ccc2nc(C[C@H]3CC[C@H](c4cccc(OCc5ccc(Cl)c6cc(F)oc56)n4)CC3)n(C[C@@H]3CCO3)c2c1 [Compound 27B] , what Tmax is on record?
0.833

* * *

experiment: Pharmacokinetic study in rats (intravenous or gavage, plasma LC-MS/MS); type: in vivo; conditions: rat, plasma; SD rats, po, 5 mg/kg
Attribute Measured: Cmax (ng/mL)
Give a bare numeral; the unit ng/mL is implied.

>  <Compound>
O=C(O)c1ccc2nc(C[C@H]3CC[C@H](c4cccc(OCc5ccc(Cl)c6cc(Cl)oc56)n4)CC3)n(C[C@@H]3CCO3)c2c1 [Compound 38B]

>  <Reported Result>
1400

$$$$

For the next question, use this compound.
For the compound O=C(O)c1ccc2nc(C[C@H]3CC[C@H](c4cccc(OCc5ccc(Cl)c6cc(F)oc56)n4)CC3)n(C[C@@H]3CCO3)c2c1 [Compound 27B] , what Cmax is on record?
1160

* * *

assay: Pharmacokinetic study in rats (intravenous or gavage, plasma LC-MS/MS); assay type: in vivo; settings: male, rat, plasma; SD rats, iv, 1 mg/kg
Examples of compounds with documented half-life follow.
Give a bare numeral; the unit h is implied.

>  <Compound>
O=C(O)c1ccc2nc(CC3CC=C(c4cccc(OCc5ccc(Cl)c6cc(Cl)oc56)n4)CC3)n(C[C@@H]3CCO3)c2c1 (some centres unmarked)

>  <half-life / h>
2.57

$$$$

For the next question, use this compound.
For the compound O=C(O)c1ccc2nc(CC3CC=C(c4cccc(OCc5ccc(Cl)c6cc(F)oc56)n4)CC3)n(C[C@@H]3CCO3)c2c1 (some centres unmarked) , what half-life is on record?
1.15

* * *

experiment: Pharmacokinetic study in rats (intravenous or gavage, plasma LC-MS/MS); format: in vivo; details: SD rats, po 5 mg/kg versus iv 1 mg/kg
Attribute Measured: F (%)
Give a bare numeral; the unit % is implied.

Some solved cases for reference:
>  <Compound>
O=C(O)c1ccc2nc(C[C@H]3CC[C@H](c4cccc(OCc5ccc(Cl)c6cc(F)oc56)n4)CC3)n(C[C@@H]3CCO3)c2c1 [Compound 27B]

>  <Reported Result>
44.4

$$$$
>  <Compound>
O=C(O)c1ccc2nc(CC3CC=C(c4cccc(OCc5ccc(Cl)c6cc(F)oc56)n4)CC3)n(C[C@@H]3CCO3)c2c1 (stereo partly shown) [Compound 2]

>  <Reported Result>
31.8

$$$$
>  <Compound>
O=C(O)c1ccc2nc(CC3CC=C(c4cccc(OCc5ccc(Cl)c6cc(Cl)oc56)n4)CC3)n(C[C@@H]3CCO3)c2c1 (stereo partly shown) [Compound 25]

>  <Reported Result>
38.8

$$$$

For the compound O=C(O)c1ccc2nc(C[C@H]3CC[C@H](c4cccc(OCc5ccc(Cl)c6cc(Cl)oc56)n4)CC3)n(C[C@@H]3CCO3)c2c1 [Compound 38B] , what F is on record?
21.1
